tested on: PPARg:RXRa IVT, anti-PPARg (NR concentration 270 nM, RXRa partner concentration 90 nM); assay: PBM binding z-score (relative to random genomic background probes); higher = stronger binding; sequences stand for … in GC…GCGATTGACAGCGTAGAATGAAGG
Answer each item with its documented PBM binding z-score.
Write no unit; give the number alone.

Given `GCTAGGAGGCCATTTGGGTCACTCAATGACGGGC` , respond with its PBM binding z-score. 2.38

Given `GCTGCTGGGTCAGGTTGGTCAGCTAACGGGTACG` , respond with its PBM binding z-score. 1.47

Given `TCATAGAGGTAAAAGGTGAAAGTCGGTGTGGTAA` , respond with its PBM binding z-score. 3.24

Given `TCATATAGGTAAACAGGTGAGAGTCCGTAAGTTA` , respond with its PBM binding z-score. 4.22

Given `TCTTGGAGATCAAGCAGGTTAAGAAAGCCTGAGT` , respond with its PBM binding z-score. -0.158

Given `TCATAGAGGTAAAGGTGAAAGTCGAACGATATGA` , respond with its PBM binding z-score. 3.05

Given `GCTAGCAGGCCATTTGGGCCACTCAATGACGGGC` , respond with its PBM binding z-score. 0.308

Given `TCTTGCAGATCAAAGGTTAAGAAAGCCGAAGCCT` , respond with its PBM binding z-score. 2.37

Given `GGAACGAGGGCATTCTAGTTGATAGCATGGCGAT` , respond with its PBM binding z-score. 2.04

Given `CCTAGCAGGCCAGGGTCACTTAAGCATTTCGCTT` , respond with its PBM binding z-score. 1.01

Given `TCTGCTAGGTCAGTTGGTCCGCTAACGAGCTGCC` , respond with its PBM binding z-score. 2.46

Given `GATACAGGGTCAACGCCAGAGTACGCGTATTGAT` , respond with its PBM binding z-score. 4.25

Given `CGTCAAAGTTCAAGGTAACGGAACAGAAAGCAGC` , respond with its PBM binding z-score. 2.24

Given `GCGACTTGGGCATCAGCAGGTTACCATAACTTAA` , respond with its PBM binding z-score. -0.238

Given `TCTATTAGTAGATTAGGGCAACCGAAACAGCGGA` , respond with its PBM binding z-score. 1.17

Given `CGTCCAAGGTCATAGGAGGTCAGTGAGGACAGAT` , respond with its PBM binding z-score. 4.55

Given `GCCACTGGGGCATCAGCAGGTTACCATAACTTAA` , respond with its PBM binding z-score. 4.92

Given `ACTAGGAGGCCAAGGGTCACTCAAGATTAGTCCG` , respond with its PBM binding z-score. 3.95

Given `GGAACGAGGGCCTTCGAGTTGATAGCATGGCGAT` , respond with its PBM binding z-score. -0.566

Given `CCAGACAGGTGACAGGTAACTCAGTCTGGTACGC` , respond with its PBM binding z-score. 1.46

Given `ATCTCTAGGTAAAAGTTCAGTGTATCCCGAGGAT` , respond with its PBM binding z-score. 3.71

Given `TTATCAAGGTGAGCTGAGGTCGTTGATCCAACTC` , respond with its PBM binding z-score. 2.79

Given `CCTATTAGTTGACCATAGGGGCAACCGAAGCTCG` , respond with its PBM binding z-score. 0.611

Given `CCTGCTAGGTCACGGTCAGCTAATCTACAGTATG` , respond with its PBM binding z-score. 5.12

Given `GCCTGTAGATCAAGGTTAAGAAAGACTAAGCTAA` , respond with its PBM binding z-score. 0.319

Given `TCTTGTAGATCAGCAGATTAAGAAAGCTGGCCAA` , respond with its PBM binding z-score. -0.0378

* * *

system: PPARg:RXRa 270nM:90nM, anti-RXR (NR concentration 270 nM, RXRa partner concentration 90 nM); assay: PBM binding z-score (relative to random genomic background probes); higher = stronger binding; sequences stand for … in GC…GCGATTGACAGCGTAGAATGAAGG
measurement.name: PBM binding z-score
Write no unit; give the number alone.

Given `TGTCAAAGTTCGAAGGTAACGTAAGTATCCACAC` , respond with its PBM binding z-score. 5

Given `TGAATGAGGTTATAAGATCAGGGAACGTTGCAAA` , respond with its PBM binding z-score. 1.75

Given `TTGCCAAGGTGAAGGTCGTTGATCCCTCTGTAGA` , respond with its PBM binding z-score. 2.06

Given `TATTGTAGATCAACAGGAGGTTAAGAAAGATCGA` , respond with its PBM binding z-score. 0.531

Given `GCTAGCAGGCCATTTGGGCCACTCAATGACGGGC` , respond with its PBM binding z-score. -0.789

Given `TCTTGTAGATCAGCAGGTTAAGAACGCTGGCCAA` , respond with its PBM binding z-score. 1.38

* * *

tested on: THRa homodimer (NR concentration 90 nM); experiment: PBM binding z-score (relative to random genomic background probes); higher = stronger binding; sequences stand for … in GC…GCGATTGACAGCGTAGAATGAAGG
measurement.name: PBM binding z-score
Write no unit; give the number alone.

Given `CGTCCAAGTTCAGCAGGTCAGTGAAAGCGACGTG` , respond with its PBM binding z-score. 0.713

Given `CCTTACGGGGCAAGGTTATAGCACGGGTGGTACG` , respond with its PBM binding z-score. -0.345

Given `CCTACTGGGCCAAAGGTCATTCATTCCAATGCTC` , respond with its PBM binding z-score. 1.06

Given `ATATGTAGGTTACATCCGGGTCATTCGGGCTATG` , respond with its PBM binding z-score. 2.36

Given `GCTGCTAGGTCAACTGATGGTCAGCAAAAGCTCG` , respond with its PBM binding z-score. 0.775

Given `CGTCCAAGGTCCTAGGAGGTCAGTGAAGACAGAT` , respond with its PBM binding z-score. 0.834

Given `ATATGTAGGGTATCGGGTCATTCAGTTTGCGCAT` , respond with its PBM binding z-score. 2.69

Given `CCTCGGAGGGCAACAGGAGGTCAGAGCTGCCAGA` , respond with its PBM binding z-score. 0.313

Given `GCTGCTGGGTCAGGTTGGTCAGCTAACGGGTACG` , respond with its PBM binding z-score. 0.312

Given `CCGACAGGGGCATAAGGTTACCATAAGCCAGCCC` , respond with its PBM binding z-score. 1.43

Given `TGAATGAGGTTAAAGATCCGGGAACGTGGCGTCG` , respond with its PBM binding z-score. 0.411

Given `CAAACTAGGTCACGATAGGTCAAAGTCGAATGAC` , respond with its PBM binding z-score. 2.39

Given `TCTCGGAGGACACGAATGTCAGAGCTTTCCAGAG` , respond with its PBM binding z-score. 0.52

Given `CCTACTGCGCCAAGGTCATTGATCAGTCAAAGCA` , respond with its PBM binding z-score. 3.12

Given `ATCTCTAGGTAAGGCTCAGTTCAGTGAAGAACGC` , respond with its PBM binding z-score. 0.732

Given `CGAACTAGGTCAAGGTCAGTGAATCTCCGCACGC` , respond with its PBM binding z-score. 3.15

Given `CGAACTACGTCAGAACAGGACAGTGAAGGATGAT` , respond with its PBM binding z-score. -0.497

Given `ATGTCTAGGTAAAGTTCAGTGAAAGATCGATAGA` , respond with its PBM binding z-score. 0.000451

Given `TTACCAAGTTGAAGGTCGTTGATCCCTCTGTAGA` , respond with its PBM binding z-score. 0.0178

Given `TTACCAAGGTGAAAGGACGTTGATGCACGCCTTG` , respond with its PBM binding z-score. 0.386

Given `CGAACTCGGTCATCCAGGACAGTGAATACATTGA` , respond with its PBM binding z-score. 0.998

Given `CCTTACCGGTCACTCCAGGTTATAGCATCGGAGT` , respond with its PBM binding z-score. 1.32

Given `CCCTACGGGTCACTGACAGGTTATAGCATTTGGA` , respond with its PBM binding z-score. 0.405

Given `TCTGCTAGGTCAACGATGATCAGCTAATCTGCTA` , respond with its PBM binding z-score. 0.449

Given `CAGCCTAGCTCAGGGCCAGTATAGGAGGAACGTT` , respond with its PBM binding z-score. -0.716

Given `CCGACTGGGGGAAAGGTTACCATACTCAGTACGA` , respond with its PBM binding z-score. 0.672

* * *

tested on: LXRa homodimer (NR concentration 270 nM); assay: PBM binding z-score (relative to random genomic background probes); higher = stronger binding; sequences stand for … in GC…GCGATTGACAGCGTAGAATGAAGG
measurement.name: PBM binding z-score
Write no unit; give the number alone.

Given `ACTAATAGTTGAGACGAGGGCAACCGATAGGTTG` , respond with its PBM binding z-score. -0.147

Given `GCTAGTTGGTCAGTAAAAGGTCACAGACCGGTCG` , respond with its PBM binding z-score. 4.2

Given `CCTACTGGGCCGTCAGGTCATTGATATCAACGTT` , respond with its PBM binding z-score. 0.809

Given `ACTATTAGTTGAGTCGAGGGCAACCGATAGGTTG` , respond with its PBM binding z-score. 0.226

Given `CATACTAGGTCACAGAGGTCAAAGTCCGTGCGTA` , respond with its PBM binding z-score. 7.84

Given `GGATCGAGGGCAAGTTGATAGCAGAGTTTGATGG` , respond with its PBM binding z-score. -0.184

Given `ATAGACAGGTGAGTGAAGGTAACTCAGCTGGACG` , respond with its PBM binding z-score. -0.416

Given `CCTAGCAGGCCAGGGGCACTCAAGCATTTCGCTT` , respond with its PBM binding z-score. -0.647

Given `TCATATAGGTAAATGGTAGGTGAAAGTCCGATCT` , respond with its PBM binding z-score. 0.813

Given `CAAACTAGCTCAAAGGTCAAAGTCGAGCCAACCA` , respond with its PBM binding z-score. 4.59

Given `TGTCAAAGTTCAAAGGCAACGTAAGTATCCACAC` , respond with its PBM binding z-score. 4.08

Given `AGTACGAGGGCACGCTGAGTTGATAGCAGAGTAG` , respond with its PBM binding z-score. -0.408
